- subject-of-test: NAD-dependent protein deacylase sirtuin-5, mitochondrial (Homo sapiens) (UniProt Q9NXA8)
- Sequence (Q9NXA8 whole entry, looked up): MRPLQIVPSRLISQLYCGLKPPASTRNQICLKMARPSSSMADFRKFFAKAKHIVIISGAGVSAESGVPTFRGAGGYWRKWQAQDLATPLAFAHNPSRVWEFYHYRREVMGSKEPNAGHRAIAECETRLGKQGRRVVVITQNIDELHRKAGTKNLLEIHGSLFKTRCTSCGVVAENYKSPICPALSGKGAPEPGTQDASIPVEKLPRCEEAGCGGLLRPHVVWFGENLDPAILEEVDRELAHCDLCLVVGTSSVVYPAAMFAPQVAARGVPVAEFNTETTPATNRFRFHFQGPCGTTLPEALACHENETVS
- measurement-notes: blockers of sirtuin-5 deacylase activity – biochemical, fluorescence imaging, single point, set 5, primary screen (AID 652115)
- condition-set: Purified SirT5, succinyl-peptide AMC, trypsin-coupled fluorescence; at 15 µM; active compounds read high
In all, about 330,000 compounds went through this assay and about 3,800 (1.2%) were called active. This excerpt belongs to a sample that is enriched for actives.
readout-label: inhibition (%)
Provide only the numeric value, understood in %.

Input line: Which measured inhibition value corresponds to Cc1ccc(N2CC(C(=O)Nc3ccc(S(=O)(=O)N4CCCC4)cc3)CC2=O)cc1C (stereo unspecified) ?
Output line: -0.84

Input line: Which measured inhibition value corresponds to OC[C@H]1[C@H](c2ccc(-c3cccnc3)cc2)[C@H]2CN(Cc3ccccn3)CCCCN21 ?
Output line: 15.6

Input line: Which measured inhibition value corresponds to CO[C@H]1CN(C)C(=O)c2cc(NS(C)(=O)=O)ccc2OC[C@@H](C)N(Cc2ccccc2)C[C@@H]1C ?
Output line: -4.85

Input line: Which measured inhibition value corresponds to CO[C@@H]1CN(C)C(=O)c2cc(NS(=O)(=O)c3cccc(F)c3)ccc2OC[C@@H](C)NC[C@@H]1C ?
Output line: -3.7

Input line: Which measured inhibition value corresponds to CCC(=O)N1CCCCN2[C@H](CO)[C@@H](c3ccc(-c4cccnc4)cc3)[C@H]2C1 ?
Output line: 0.057

Input line: Which measured inhibition value corresponds to Cc1ccc(NC(=O)C2CC(=O)N(c3ccc4c(c3)OCCO4)C2)cc1S(=O)(=O)N1CCCCCC1 (stereo unspecified) ?
Output line: 15.7

---
Input line: Which measured inhibition value corresponds to C[C@@H]1CN([C@@H](C)CO)C(=O)c2cc(NC(=O)Nc3ccc(C(F)(F)F)cc3)ccc2O[C@@H](C)CCCCO[C@@H]1CN(C)C(=O)Nc1cccc2ccccc12 ?
Output line: -1.14

Input line: Which measured inhibition value corresponds to CO[C@@H]1CN(C)C(=O)c2cc(NC(=O)c3cnccn3)ccc2OC[C@@H](C)N(C(=O)C2CC2)C[C@@H]1C ?
Output line: 2.16

Input line: Which measured inhibition value corresponds to O=C(C1CCC1)N1CC(=O)N2[C@@H](CO)[C@@H](c3ccc(C#Cc4cccc(F)c4)cc3)[C@@H]2C1 ?
Output line: -4.53

Input line: Which measured inhibition value corresponds to OC[C@@H]1[C@H](c2ccc(Br)cc2)[C@@H]2CN(Cc3ccccn3)CCCCN12 ?
Output line: 3.43
